Each record here notes measured optical density.
Target: T1, biotinylated goat anti-human kappa light chain
T1 construct: positive control of the ELISA
Test: ELISA, positive control; also: test concentration or dose not given here
Description: The binding of ACVR2A-specific monoclonal antibodies to human ACVR2A, mouse ACVR2A, biotinylated goat anti-human kappa light chain (positive control) and human Fc (negative control) were determined by ELISA.
Please respond with the number in OD and leave the unit unwritten.

binder | unit annotation | optical density
369_A12 (antibody, V domains shown, Group II) VH: EVQLLESGGGLVQPGGSLRLSCAASGFTFSSYSMHWVRQAPGKGLEWVASINYNSGYTGYADSVKGRFTISRDNSKNTLYLQMNSLRAEDTAVYYCARAATWHDTHLDYWGQGTLVTVSS VL: DIQMTQSPSSLSASVGDRVTITCRASQSILTYLNWYQQKPGKAPKLLIYAATSRHSGVPSRFSGSGSGTDFTLTISSLQPEDFATYYCQQSYDLPLTFGGGTKVEIK | OD | 3.72
366_E01 (antibody, V domains shown, Group III) VH: EVQLLESGGGLVQPGGSLRLSCAASGFTFDSYGMNWVRQAPGKGLEWVSNINYNGGYKSYADSVKGRFTISRDNSKNTLYLQMNSLRAEDTAVYYCARGANWHDTHLDYWGQGTLVTVSS VL: DIQMTQSPSSLSASVGDRVTITCRASQSILTYLNWYQQKPGKAPKLLIYAATSRASGVPSRFSGSGSGTDFTLTISSLQPEDFATYYCQQSYSSPLTFGGGTKVEIK | OD | 3.66

Query block: For the binder 367_A03 (antibody, V domains shown, Group III) VH: EVQLLESGGGLVQPGGSLRLSCAASGFTFDSYGMNWVRQAPGKGLEWVAGINYNGGYTSYADSVKGRFTISRDNSKNTLYLQMNSLRAEDTAVYYCARGANWHDTALDYWGQGTLVTVSS VL: DIQMTQSPSSLSASVGDRVTITCRASQSILTYVNWYQQKPGKAPKLLIYATTSRHSGVPSRFSGSGSGTDFTLTISSLQPEDFATYYCQQSYDSPLTFGGGTKVEIK , report optical density.
Result block: 3.44

Data provenance is patent US20210380703A1.
